Where do the numbers come from? From patent US8173610B2.

METHOD: in vitro
ASSAY_CONTEXT: human
READOUT_NAME: CC90 (nM)
Number in nM, nothing else.

CC90 in this record for COc1cccc2c1C(=O)c1c(O)c3c(c(O)c1C2=O)C[C@@](O)(C(=O)CO)C[C@@H]3O[C@H]1C[C@H](N)[C@@H](O)[C@H](C)O1 [BNE00, reference compound] : 2400

* * *

METHOD: Cytotoxic activity in Huh7 cells replicating the HCV replicon
ASSAY_CONTEXT: human
READOUT_NAME: CC50 (nM)
Number in nM, nothing else.

CC50 in this record for COc1cccc2c1C(=O)c1c(O)c3c(c(O)c1C2=O)C[C@@](O)(C(=O)CO)C[C@@H]3O[C@H]1C[C@H](N)[C@@H](O)[C@H](C)O1 [BNE00, reference compound] : 3
